Assay: Cytotoxicity against human CEmx174 cells expressing LTR-GFP
Assay type: cell-based
Measured property: CC50 (µM)
Answers are plain numbers, in µM.

Example entries begin here.
O=S(=O)(c1ccccc1Cl)c1nnn2c1nc(N1CCOCC1)c1sccc12 = 56
O=S(=O)(c1cccc(Cl)c1)c1nnn2c1nc(-c1ccc(Cl)cc1)c1sccc12 = 46
COc1cccc(-c2nc3c(S(=O)(=O)c4cccc(Cl)c4)nnn3c3ccsc23)c1 = 46
O=S(=O)(c1ccc(Cl)cc1)c1nnn2c1nc(N1CCOCC1)c1sccc12 = 70
O=C(O)c1nnn2c1nc(N1CCOCC1)c1sccc12 = 42

Respectfully, I request CC50 for each entry included below.
1. O=S(=O)(c1ccccc1)c1nnn2c1nc(N1CCOCC1)c1sccc12
2. O=S(=O)(c1cc(Cl)cc(Cl)c1)c1nnn2c1nc(N1CCOCC1)c1sccc12
3. O=C(Nc1ccc(Cl)cc1)c1nnn2c1nc(N1CCOCC1)c1sccc12
4. COc1ccccc1-c1nc2c(S(=O)(=O)c3cccc(Cl)c3)nnn2c2ccsc12

Reply:
1. 39
2. 51
3. 57
4. 45

---

Assay: Cytotoxicity against human CEmx174 cells expressing LTR-GFP
Assay type: cell-based
Would you kindly list CC50 for each of these compounds?
Give bare numbers, in µM.

O=S(=O)(c1cccc(Cl)c1)c1nnn2c1nc(N1CCCCCC1)c1sccc12 = 35
O=S(=O)(c1cccc(Cl)c1)c1nnn2c1nc(-c1cccc(Cl)c1)c1sccc12 = 47

Please report CC50 for every entry that follows.
1. O=S(=O)(c1cccc(Cl)c1)c1nnn2c1nc(-c1ccccc1)c1sccc12
2. Cc1ccc(-c2nc3c(S(=O)(=O)c4cccc(Cl)c4)nnn3c3ccsc23)cc1

Reply:
[61, 61]

---

Experiment: Therapeutic index, ratio of CC50 for human CEmx174 cells expressing LTR-GFP to EC50 for HIV1 LAI
Settings: read-out: Ratio CC50/EC50
Provide the recorded selectivity ratio for the entries that follow.

Past entries and their recorded results:
CN(C)c1ccc(-c2nc3c(S(=O)(=O)c4cccc(Cl)c4)nnn3c3ccsc23)cc1 = > 16
Nc1nc2c(S(=O)(=O)c3cccc(Cl)c3)nnn2c2ccsc12 = > 31
O=S(=O)(c1cccc(Br)c1)c1nnn2c1nc(N1CCOCC1)c1sccc12 = > 15
O=S(=O)(c1cccc(Cl)c1)c1nnn2c1nc(Nc1ccccc1)c1sccc12 = > 21
O=C(Nc1ccccc1Cl)c1nnn2c1nc(N1CCOCC1)c1sccc12 = > 14

Okay, now this compound:
Query: Data request, read-out selectivity ratio, for CC(C)Nc1nc2c(S(=O)(=O)c3cccc(Cl)c3)nnn2c2ccsc12
Reply: > 22

---

Exercise: state measured CC50 for each of the molecules provided.
Assay: Cytotoxicity against human CEmx174 cells expressing LTR-GFP
Type: cell-based

O=S(=O)(c1cccc(F)c1)c1nnn2c1nc(N1CCOCC1)c1sccc12 = > 50 µM
Cc1ccnc2c1NC(=O)c1cccnc1N2C1CC1 [NEVIRAPINE] = > 10 µM
O=S(=O)(c1cccc(Br)c1)c1nnn2c1nc(N1CCOCC1)c1sccc12 = > 50 µM
CN(C)c1ccc(-c2nc3c(S(=O)(=O)c4cccc(Cl)c4)nnn3c3ccsc23)cc1 = > 50 µM
Nc1nc2c(S(=O)(=O)c3cccc(Cl)c3)nnn2c2ccsc12 = > 50 µM

Please look at the following molecule next.
Query: CC50 lookup needed for O=C(Nc1cccc(Cl)c1)c1nnn2c1nc(N1CCOCC1)c1sccc12 , thanks.
Reply: > 50 µM
